Sourced from paper PMC3433420

# studyTarget: T1, SH2D1B SH2 domain (human, UniProt O14796 5-101)
# T1 construct: SH2D1B, human; source: bacterial expression, purified
# T1 sequence (looked up): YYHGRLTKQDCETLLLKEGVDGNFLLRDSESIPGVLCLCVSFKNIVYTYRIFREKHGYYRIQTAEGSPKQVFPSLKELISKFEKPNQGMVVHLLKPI
# protocolDetails: peptide or protein array; SH2/PTB proteins spotted on aldehyde slides, rhodamine peptide titrated in buffer B (20 mM HEPES, 100 mM KCl, 0.1% Tween-20, 5 mM DTT, pH 7.8), 1 h at room temperature; replicate assays
# statedConditions: both partners purified
Non-standard residues stand in square brackets, D forms with d. No end group written: not given here. pY = N[C@@H](Cc1ccc(OP(=O)(O)O)cc1)C(=O)O; Rhodamine = not defined here
valueKind: pKd
pKd is a log-scale quantity: -log10 of the concentration expressed in molar.

GET /value?item= Rhodamine-ETDG[pY]VAPLTCSD (reading uncertain) [ErbB2 pY1127 phosphopeptide, rhodamine-labelled, for protein microarrays] &field=pKd returns 5.64
